# assayed-system: UniProt P21452
# Sequence (P21452 whole entry): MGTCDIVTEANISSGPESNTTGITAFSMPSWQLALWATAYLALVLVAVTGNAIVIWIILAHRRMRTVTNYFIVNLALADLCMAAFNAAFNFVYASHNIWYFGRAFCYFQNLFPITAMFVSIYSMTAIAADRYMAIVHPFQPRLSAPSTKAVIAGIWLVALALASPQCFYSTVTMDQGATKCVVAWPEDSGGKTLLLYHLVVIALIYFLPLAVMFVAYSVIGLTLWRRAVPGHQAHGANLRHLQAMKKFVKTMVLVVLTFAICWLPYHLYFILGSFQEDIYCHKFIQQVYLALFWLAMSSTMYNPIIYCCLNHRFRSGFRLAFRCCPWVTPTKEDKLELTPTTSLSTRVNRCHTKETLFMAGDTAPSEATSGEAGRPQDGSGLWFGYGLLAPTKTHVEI
# assay-comment: Binding affinity in membrane preparations containing recombinant human Tachykinin receptor 2 in CHO cells by using [3H]NKA as the radioligand.
pKi: −log10 of the molar value.
Listing of entries alongside the reported pKi.

// solved cases for pKi follow
INSERT INTO assay_data (compound, assayed_system, result) VALUES
  ('O=C(c1cc(F)cc(F)c1)N1CCN(C(=O)CNC2CCN(Cc3ccccc3)CC2)C(c2ccc(Cl)c(Cl)c2)C1 (stereo not drawn)', 'UniProt P21452', 7.66),
  ('O=C(CN1CCN(Cc2ccccc2)CC1)N1CCN(Cc2cc(C(F)(F)F)cc(C(F)(F)F)c2)CC1c1ccccc1 (stereo not drawn)', 'UniProt P21452', '< 6.00'),
  ('Cc1cc(C)cc(C(=O)N2CCN(C(=O)CNC3CCN(Cc4ncc[nH]4)CC3)[C@H](c3ccc(Cl)c(Cl)c3)C2)c1', 'UniProt P21452', 8.52),
  ('O=C(Cc1cc(C(F)(F)F)cc(C(F)(F)F)c1)N1CCN(C(=O)CNC2CCN(Cc3ccccc3)CC2)C(c2ccccc2)C1 (stereo not drawn)', 'UniProt P21452', '< 6.00');

Please look at the following compound next.
Prompt: GET /values?readout=pKi&item= O=C(CN1CCC(Cc2ccccc2)CC1)N1CCN(Cc2cc(C(F)(F)F)cc(C(F)(F)F)c2)CC1c1ccccc1 (stereo not drawn)
Completion: < 6.00

* * *

# assayed-system: Substance-P receptor (Homo sapiens, UniProt P25103)
# Sequence (P25103 whole entry): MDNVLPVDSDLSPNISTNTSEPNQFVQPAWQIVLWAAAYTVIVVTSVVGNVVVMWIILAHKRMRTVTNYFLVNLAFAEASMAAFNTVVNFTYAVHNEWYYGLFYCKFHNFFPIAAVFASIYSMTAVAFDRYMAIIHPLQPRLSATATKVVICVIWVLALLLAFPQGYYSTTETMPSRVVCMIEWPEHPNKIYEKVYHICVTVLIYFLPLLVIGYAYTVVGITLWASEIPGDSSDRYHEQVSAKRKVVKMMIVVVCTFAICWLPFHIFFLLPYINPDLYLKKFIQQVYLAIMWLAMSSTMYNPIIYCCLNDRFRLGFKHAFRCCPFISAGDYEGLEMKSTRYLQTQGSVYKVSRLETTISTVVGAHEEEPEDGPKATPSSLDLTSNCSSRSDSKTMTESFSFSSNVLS
# assay-comment: Binding affinity in membrane preparations containing recombinant human Tachykinin receptor 1 in CHO cells by using [3H]-Sar SP as the radioligand.
# Format: cell membranes
measurement-name: Ki (nM)

INSERT INTO assay_data (compound, measurement_name, number) VALUES
  ('O=C(CN1CCC(O)(c2ccccc2)CC1)N1CCN(Cc2cc(C(F)(F)F)cc(C(F)(F)F)c2)CC1c1ccccc1 (configuration not stated)', 'Ki', 13),
  ('COc1cc(C(=O)N2CCN(C(=O)CNC3CCN(Cc4ccccc4)CC3)C(c3ccc(Cl)c(Cl)c3)C2)cc(OC)c1OC (configuration not stated)', 'Ki', 112),
  ('O=C(c1cc(F)cc(F)c1)N1CCN(C(=O)CNC2CCN(Cc3ccccc3)CC2)C(c2ccc(Cl)c(Cl)c2)C1 (configuration not stated)', 'Ki', 23);

I. O=C(CN1CCC(O)(c2ccccc2)CC1)N1CCN(Cc2cc(C(F)(F)F)cc(C(F)(F)F)c2)CC1c1ccc(Cl)c(Cl)c1 (configuration not stated)
II. Cc1cc(C)cc(C(=O)N2CCN(C(=O)CNC3CCN(C(=O)[C@H](N)Cc4ccccc4)CC3)[C@H](c3ccc(Cl)c(Cl)c3)C2)c1
III. Cc1cc(C)cc(C(=O)N2CCN(C(=O)CNC3CCN(C(=O)[C@H](N)c4ccccc4)CC3)[C@H](c3ccc(Cl)c(Cl)c3)C2)c1
IV. O=C(CN1CCN(Cc2ccccc2)CC1)N1CCN(Cc2cc(C(F)(F)F)cc(C(F)(F)F)c2)CC1c1ccccc1 (configuration not stated)
Prompt: Arrange the 4 entries by Ki so the values rise. Answer format: the labels, in the requested order.
Completion: II, I, IV, III
(II: 11 nM, I: 32 nM, IV: 48 nM, III: 143 nM)
